test system: T1, human GITR (amino acids M1-V241, NCBI Accession #NP_004186.1) expressed on cells (human, UniProt Q9Y5U5 26-241)
T1 sequence: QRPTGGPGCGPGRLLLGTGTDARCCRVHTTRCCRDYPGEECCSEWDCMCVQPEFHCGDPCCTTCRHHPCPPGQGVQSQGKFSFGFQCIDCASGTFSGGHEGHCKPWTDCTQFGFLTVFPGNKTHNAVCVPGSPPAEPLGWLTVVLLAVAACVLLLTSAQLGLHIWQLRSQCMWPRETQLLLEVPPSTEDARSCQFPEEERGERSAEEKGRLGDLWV
test method notes: cell-based or functional assay
Examples of binders with documented fold activation, T-cell proliferation, plate-bound Ab 10.6 nM, donor 1 follow.
The figure you give is taken to be in fold; do not add the unit.

Worked examples, 2 binders total:
Enquiry: Which measured fold activation, T-cell proliferation, plate-bound Ab 10.6 nM, donor 1 value corresponds to H4H14528P (antibody, human IgG4, V domains shown, human IgG4 (H4H)) VH: QVQLVESGGGVVQPGRSLRISCAASGFTFNNYGFHWVRQAPGRGLEWVAVIWYSGSNKYYGDSVKGRFTISRDNSKNILYLQMNSLRAEDTAIYYCARFPFSSSWLLDYWGQGTLVTVSS VL: DIQLTQSPSFLSASVGDRVTFTCWASQGISDYLAWYQQKPGKAPKLLIYAASALQSGVPSRFSGSGSGTEFTLTVSSLQPEDFATYYCQQLNSYPFTFGPGTKVDIK ?
Return: 2

Enquiry: // query fold activation, T-cell proliferation, plate-bound Ab 10.6 nM, donor 1 value for entry H4H14508P (antibody, human IgG4, V domains shown, human IgG4 (H4H)) VH: QVQLVESGGGVVQPGRSLRLSCAASGLTVSSYVMHWVRQAPGKGLEWVAIIWYDGSNKYYGDSVKGRFTISRDNSKKTLYLQMNSLRAEDTAVYYCARGRPLSSSSSDYYGLDVWGQGTTVTVSS VL: AIQMTQSPSSLSASVGDRVTIICRASQGIRNDLGWYQQKPGKAPNLLIYAASSLQSGVPSRFSGSGSGTDFTLTISSLQPEDFATYYCLQDYNYPWTFGQGTKVEIK
Return: 10

Others:
Enquiry: # input binder: H4H14470P (antibody, human IgG4, V domains shown, human IgG4 (H4H)) VH: QVQLVESGGGVVQPGRSLRLSCAASGFTVRNYGMHWVRQAPGKGLEWVAVIWYDGSNKYYADSVKGRFTISRDNSKNTLFLQMNSLRAEDTAVYYCARGGELVRGDYYYGMDVWGQGTTVTVSS VL: DIQMTQSPSSLSASVGDRVTITCRASQGIRNDLGWYQQKPGKAPKRLIYGASSLQSGVPSRFSGSGSGTEFTLTISSLQPEDFATYYCLQHNSYPYTFGQGTKLEIK ; wanted: its fold activation, T-cell proliferation, plate-bound Ab 10.6 nM, donor 1
Return: 0

Enquiry: Field request: fold activation, T-cell proliferation, plate-bound Ab 10.6 nM, donor 1 | item: H4H14525P (antibody, human IgG4, V domains shown, human IgG4 (H4H)) VH: QVQLVESGGGVVQPGRSLRLSCAASGFTFSSYGMHWVRQAPGKGLEWVAVIWYVGSNKYYGESVKGRFTISRDNSKNTLYLQMNSLRDEDTAIYYCARGGQLGSFYYYGMDVWGQGTTVTVSS VL: DIQMTQSPSSLSASVGDRVTITCRASQGIRNDLGWYQQKPGKAPKRLIYDVSSLQSGVPSRFSGSGSGTEFTLTISSLQPEDLATYYCLQHNSYPWTFGQGTKVEIK
Return: 6

Enquiry: Which measured fold activation, T-cell proliferation, plate-bound Ab 10.6 nM, donor 1 value corresponds to H4H14475P (antibody, human IgG4, V domains shown, human IgG4 (H4H)) VH: QVQLVESGGGVVQPGRSLRLSCAASGTIFSTHGMHWVRQAPGKGLEWVAVISYDGNKKYYAGSVKGRFTISRDNSKNTLYLQMNDVRSEDTAVYHCTTDITGITDYWGQGTLVTVSS VL: DIQMTQSPSSLSASVGDRVTITCRASQGIGNDLGWYQQKLGKAPKRLIYAASSLESGVPSRFSGSGSGTEFILTISSLQAEDFATYYCLQHNGFPTFGQGTKVEIK ?
Return: 0

Enquiry: fold activation, T-cell proliferation, plate-bound Ab 10.6 nM, donor 1 lookup needed for H4H14469P (antibody, human IgG4, V domains shown, human IgG4 (H4H)) VH: QVQLVESGGGVVQPGGSLRLSCAVSGFTFSDYGMHWVRQVPGAGLEWVAVIYYEGSNKYYADSVKGRFTISRDNSKNTLYLQMNSLRVEDTSMYFCARGPLLGGNFYSYLMDVWGQGTTVTVSS VL: AIQMTQSPSSLSASVGDRVTITCRASQGIRNGLGWYQQKPGKAPKLLIYTASSLQSGVPSRFSGSGSGTDFTLTISSLQPEDFATYYCLQDYNYPFSFGPGTKVDIK , thanks.
Return: 3

Enquiry: Name the recorded fold activation, T-cell proliferation, plate-bound Ab 10.6 nM, donor 1 for H4H14516P (antibody, human IgG4, V domains shown, human IgG4 (H4H)) VH: EVQLVESGGGLVQPGGSLRLSCAASGFTFSNYEMYWVRQAPGKGLEWVSYISSSGTTIYYADSVKGRFSVSRENARSSLYLQMNSLRVEDSAVYFCAKYNWNSFYGLDVWGQGTTVTVSS VL: AIQMTQSPSSLSASVGDRVTITCRASQDIRNDLGWYQQKPGKAPKLLISAASSLQGGVPSRFSGSGSGTDFTLTISSLQPADFATYYCLQEYNYALTFGGGTKVEIK .
Return: 1

Enquiry: Requested field: fold activation, T-cell proliferation, plate-bound Ab 10.6 nM, donor 1. Item: H4H14521P (antibody, human IgG4, V domains shown, human IgG4 (H4H)) VH: EVQLVESGGGLVQPGGSLRLSCAASGFTFRVYEMNWVRQAPGKGLEWISYIGSSGFTIYYADSVKGRFTISRDNAKNSLFLQLNSLRAEDTAVYYCARGWNDGVPNYLGMDVWGQGTTVTVSS VL: DIQMTQSPSSLSASVGDRVTITCQASQDINKYLNWYQQKPGKAPKLLIYDASNLETGVPSRFSGSGSGTDFTFTISSLQPEDIARYHCQQYDKIPLTFGGGTKVEIK
Return: 1
